Give measured protein stability index for each item. Keep answers brief.
B1: ACBD3 (parent)
chain: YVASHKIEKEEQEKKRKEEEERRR

# Variants of: B1
# ASSAY_COMMENT: protein stability index of a GFP-peptide fusion (GPS, HEK-293T) (PSI 1-6); higher = more stable;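 also: lentivirally expressed fusions sorted by FACS into six bins by GFP to DsRed ratio, PSI derived from sequencing read proportions per bin multiplied by bin number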
# EXPERIMENTAL_CONTEXT: c terminus: a fixed tail appended
Lab note: write the figure by itself, no unit.

Value of protein stability index reported for the variant YVASHKIEKEEQEKKRKEEEPRRR [E21P] is 2.35

Per the records, this variant ( YVASHKIEKEEQECKRKEEEERRR [K14C] ) has protein stability index equal to 2.67

Data point: YVASHKIEKEEQEKKRKTEEERRR [E18T] ; protein stability index = 2.41

The variant listed as YVASHKIEKEEQEWKRKEEEERRR [K14W] has a reported protein stability index of 2.69

Per the records, this variant ( YPASHKIEKEEQEKKRKEEEERRR [V2P] ) has protein stability index equal to 5.11

The variant listed as YVALHKIEKEEQEKKRKEEEERRR [S4L] shows protein stability index equal to 2.67

variant YVASHKIEKEEQEKKRMEEEERRR [K17M] , protein stability index observed: 2.45

Notebook: YTASHKIEKEEQEKKRKEEEERRR [V2T] , protein stability index read as 5.24

Reported protein stability index ( YVKSHKIEKEEQEKKRKEEEERRR [A3K] ) = 2.95

Consider YVASHKIEKEEQEDKRKEEEERRR [K14D] . Its measured protein stability index is 3.27

For record YVVSHKIEKEEQEKKRKEEEERRR [A3V] the listed protein stability index is 3.36

Item: YVASHKIEKEEQEKKRKEGEERRR [E19G] | protein stability index: 2.03

// sample YVASHKIEKEEQEKKRKEECERRR [E20C] , its protein stability index was 3.17

Form field protein stability index, entry YVASHKIEKEEQEKRRKEEEERRR [K15R] : 2.69

protein stability index reported for this variant YVASHGIEKEEQEKKRKEEEERRR [K6G] : 2.96

Lab note: measured protein stability index of YVASHKSEKEEQEKKRKEEEERRR [I7S] was 3.22

Note to self: protein stability index recorded for YVASHKIEKEEQEKKRKEEERRRR [E21R] was 2.04

// protein stability index value for YVASHKIEKEEQEKKRKKEEERRR [E18K] : 2.05

// protein stability index value for YVDSHKIEKEEQEKKRKEEEERRR [A3D] : 3.91

Entry YVASHKIEKEEQEKKRKEEEERER [R23E] ; protein stability index = 3.35

Briefly, protein stability index measured for YVASHKIEKEIQEKKRKEEEERRR [E11I] : 2.24

The value of protein stability index measured for the variant YVASHKIEKEEQEKKRKEREERRR [E19R] turned out to be 2.25

Taken from the supplement of paper PMC10567573.
